Reported Endpoint: MIC (µM)
Response body: numeric value in µM, unit text excluded.

Determine reported MIC for CSCC[C@H](NC(=O)[C@H](CO)NC(=O)[C@H](Cc1ccc(O)cc1)NC(=O)[C@H](C)NC(=O)[C@@H](N)CCCCN)C(=O)N1CCC[C@H]1C(=O)N[C@@H](CCCN=C(N)N)C(=O)N[C@H]1CSSC[C@@H](C(=O)N[C@@H](Cc2c[nH]c3ccccc23)C(=O)N[C@@H](CC(C)C)C(N)=O)NC(=O)[C@H](CC(C)C)NC(=O)[C@H](C(C)C)NC(=O)[C@H](C)NC(=O)[C@H](CCCN=C(N)N)NC(=O)[C@H](Cc2ccccc2)NC(=O)[C@H](CC(C)C)NC(=O)[C@H](Cc2ccc(O)cc2)NC(=O)[C@H](CCCCN)NC1=O [KAYSMPRCKYLFRAVLCWL] ; test system: Escherichia coli ATCC 25922.
10.6
